system: Caenorhabditis elegans L1 (N2); experiment: survival and reproduction score of C. elegans L1 (0: 0-10 living worms, 1: 11-20, 2: 21-50, 3: >50, 4: overgrown) (score 0-4); higher = more worms, less nematicidal, active = 1 or less; extreme values may be limits of the assay; conditions: 60 µM; 6 days; temperature: 20 °C
Labels: active, inactive

| Mol | Cat |
| --- | --- |
| COc1ccccc1NC(=O)c1ccccc1-c1nc(-c2ccc(Cl)cc2)no1 | inactive |
| Brc1ccc(-c2nc(-c3ccncc3)no2)cc1 | active |
| NC(=O)COc1ccccc1-c1nc(-c2ccccc2Cl)no1 | inactive |
| O=C(CSc1nnc(-c2ccc(Br)cc2)o1)Nc1ccc2ccccc2c1 | inactive |
| COc1ccc(Cl)cc1NC(=O)CSc1nnc(-c2ccco2)o1 | inactive |
| CCCC(=O)Nc1ccccc1-c1nc(-c2ccccn2)no1 | inactive |
| Cc1cc(OCc2nc(-c3ccccc3)no2)ccc1Cl | inactive |
| Clc1ccc(OCc2nc(-c3ccc(Br)o3)no2)cc1 | inactive |
| COc1ccc(Cl)cc1NC(=O)CSc1nnc(-c2ccc(Br)cc2)o1 | inactive |
| N#Cc1ccc(OCc2nc(-c3cccs3)no2)cc1 | inactive |
| COc1cccc(-c2noc(-c3cc(C)ccc3C)n2)c1 | inactive |
| N#Cc1ccc(CSc2nnc(-c3ccccc3)o2)cc1 | inactive |

====

Recorded survival and reproduction score by entry
test system: Caenorhabditis elegans L1 (N2); assay: survival and reproduction score of C. elegans L1 (0: 0-10 living worms, 1: 11-20, 2: 21-50, 3: >50, 4: overgrown) (score 0-4); higher = more worms, less nematicidal, active = 1 or less; extreme values may be limits of the assay; details: 60 µM; 6 days; temperature: 20 °C
Metric: survival and reproduction score

| Mol | Metric | Value Reported |
| --- | --- | --- |
| Fc1cccc(-c2nc(-c3cccnc3)no2)c1 | survival and reproduction score | 0 |
| Cc1ccc(-c2nc(C3CCCCC3)no2)cc1 | survival and reproduction score | 0 |
| Cc1cccc(-c2noc(-c3cccc(Br)c3)n2)c1 | survival and reproduction score | 4 |
| CC(=O)Nc1ccc(-c2nc(-c3ccccc3)no2)cc1 | survival and reproduction score | 4 |
| O=C(CSc1nnc(-c2ccco2)o1)c1ccc(Br)cc1 | survival and reproduction score | 4 |
| Cc1ccc(-c2nnc(SCC(=O)Nc3cc(C)ccc3C)o2)cc1 | survival and reproduction score | 4 |
| CCNC(=O)c1ccccc1-c1nc(-c2ccccc2)no1 | survival and reproduction score | 4 |
| O=C(CSc1nnc(-c2cccc(Cl)c2)o1)Nc1ccccc1 | survival and reproduction score | 4 |
| Fc1ccccc1-c1nc(-c2ccc(Cl)cc2)no1 | survival and reproduction score | 1 |
| CCOc1ccc(NC(=O)CSc2nnc(-c3ccncc3)o2)cc1 | survival and reproduction score | 4 |
| N#Cc1ccc(OCc2nc(-c3ccc(Br)o3)no2)cc1 | survival and reproduction score | 4 |
| CCCc1ccc(-c2ccc(-c3nc(-c4ccccn4)no3)cc2)cc1 | survival and reproduction score | 4 |

====

test system: Caenorhabditis elegans L1 (N2); assay: survival and reproduction score of C. elegans L1 (0: 0-10 living worms, 1: 11-20, 2: 21-50, 3: >50, 4: overgrown) (score 0-4); higher = more worms, less nematicidal, active = 1 or less; extreme values may be limits of the assay; conditions: 60 µM; 6 days; temperature: 20 °C
Metric: survival and reproduction score

| Mol | Study Target | Value Reported |
| --- | --- | --- |
| O=C(Nc1ccccc1-c1nc(-c2cccnc2)no1)c1cccc(Cl)c1 | Caenorhabditis elegans L1 (N2) | 4 (inactive) |
| O=C(CSc1nnc(-c2ccc(Cl)cc2Cl)o1)c1ccc2c(c1)OCCO2 | Caenorhabditis elegans L1 (N2) | 4 (inactive) |
| CCOc1cc(C#N)ccc1OCc1nc(-c2cccs2)no1 | Caenorhabditis elegans L1 (N2) | 4 (inactive) |
| COc1ccc(-c2noc(CSc3nc4cc(C)ccc4[nH]3)n2)cc1 | Caenorhabditis elegans L1 (N2) | 4 (inactive) |
| Cc1cccc(-c2noc(-c3ccccc3Br)n2)c1 | Caenorhabditis elegans L1 (N2) | 3.5 (inactive) |
| CCCCC(=O)Nc1ccccc1-c1nc(-c2cccnc2)no1 | Caenorhabditis elegans L1 (N2) | 4 (inactive) |

The measured values listed here are drawn from the supplement of paper PMC11219838.
